STUDY_SYSTEM: Prostaglandin G/H synthase 1 (Homo sapiens) (UniProt P23219);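 note: human whole blood assay, COX-1 activity read out as TXB2 level by enzyme immunoassay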
Sequence (P23219 whole entry): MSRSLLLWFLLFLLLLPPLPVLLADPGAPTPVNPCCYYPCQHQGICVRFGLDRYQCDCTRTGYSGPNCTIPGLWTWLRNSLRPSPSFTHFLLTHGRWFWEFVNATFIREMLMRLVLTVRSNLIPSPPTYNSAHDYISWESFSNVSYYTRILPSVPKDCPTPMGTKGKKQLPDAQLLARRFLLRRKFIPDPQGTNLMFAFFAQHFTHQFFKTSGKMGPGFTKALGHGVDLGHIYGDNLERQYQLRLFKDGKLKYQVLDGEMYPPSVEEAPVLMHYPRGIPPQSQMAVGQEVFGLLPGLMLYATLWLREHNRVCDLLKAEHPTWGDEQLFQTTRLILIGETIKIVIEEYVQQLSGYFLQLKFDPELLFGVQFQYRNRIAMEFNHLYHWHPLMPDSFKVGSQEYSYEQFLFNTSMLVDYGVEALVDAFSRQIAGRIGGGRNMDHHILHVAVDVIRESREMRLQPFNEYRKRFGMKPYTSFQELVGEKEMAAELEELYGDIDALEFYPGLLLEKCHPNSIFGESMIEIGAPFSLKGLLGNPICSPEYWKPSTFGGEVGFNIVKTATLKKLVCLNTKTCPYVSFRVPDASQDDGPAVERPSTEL
CONDITION_SET: Blood, at 10 µM
Description: Inhibition of cyclooxygenase-1 in Homo sapiens (human) whole blood assessed as TXB2 level at 10 uM by EIA
Active and inactive are the calls of the source. No cut-off for these calls is given here.

SMILES_REPRESENTATION: Cc1ccnc(NC(=O)Cn2c(=O)sc3cc(C(=O)c4ccccc4)ccc32)c1
inhibition: 50%
--
SMILES_REPRESENTATION: Cc1cccc(NC(=O)Cn2c(=O)sc3cc(C(=O)c4ccccc4F)ccc32)n1
inhibition: 28%
--
SMILES_REPRESENTATION: O=C(Cn1c(=O)sc2cc(C(=O)c3ccccc3Cl)ccc21)Nc1cccc(Cl)c1
inhibition: 7.27%
--
SMILES_REPRESENTATION: Cc1cccc(NC(=O)Cn2c(=O)sc3cc(C(=O)c4ccccc4Cl)ccc32)n1
inhibition: 9.84%
--
SMILES_REPRESENTATION: O=C(Cn1c(=O)sc2cc(C(=O)c3ccccc3)ccc21)Nc1ccccn1
inhibition: 49.8%
--
SMILES_REPRESENTATION: Cc1cccc(NC(=O)Cn2c(=O)sc3cc(C(=O)c4ccccc4)ccc32)n1
inhibition: inactive
--
SMILES_REPRESENTATION: CS(=O)(=O)c1ccc(-c2cc(Br)sc2-c2ccc(F)cc2)cc1
inhibition: 100%
--
SMILES_REPRESENTATION: O=C(Cn1c(=O)sc2cc(C(=O)c3ccccc3)ccc21)Nc1cccc(Cl)c1
inhibition: inactive
--
SMILES_REPRESENTATION: O=C(Cn1c(=O)sc2cc(C(=O)c3ccccc3Cl)ccc21)Nc1ccccn1
inhibition: 45.2%
--
SMILES_REPRESENTATION: Cc1ccnc(NC(=O)Cn2c(=O)sc3cc(C(=O)c4ccccc4F)ccc32)c1
inhibition: 1.98%
--
SMILES_REPRESENTATION: O=C(Cn1c(=O)sc2cc(C(=O)c3ccccc3)ccc21)Nc1ccccc1
inhibition: 40.4%
--
SMILES_REPRESENTATION: O=C(Cn1c(=O)sc2cc(C(=O)c3ccccc3F)ccc21)Nc1cccc(Cl)c1
inhibition: 20.5%
--
SMILES_REPRESENTATION: O=C(Cn1c(=O)sc2cc(C(=O)c3ccccc3)ccc21)Nc1ccc(Cl)cc1
inhibition: inactive
--
SMILES_REPRESENTATION: O=C(Cn1c(=O)sc2cc(C(=O)c3ccccc3Cl)ccc21)Nc1ccccc1
inhibition: 3.42%
